assay.method.text: PK in Colo-205 subcutaneous tumor model of BALB/c nude mouse
Assay type: in vivo
test.conditions: female, plasma, Colo-205 tumor-bearing nude mouse, PO QD 22 days, 100 mg/kg, after last administration

{"compound": "CCN1CCN(Cc2ccc(Nc3ncc(F)c(-c4cc(F)c5nc(C)n(C(C)C)c5c4)n3)nc2)CC1 [LY2835219, reference compound]", "unit.symbol": "ng/mL", "Cmax": 1080}
{"compound": "CCN1CCN(Cc2cnc(Nc3cc(-c4cc(F)c5nc(C)n(C(C)C)c5c4)c(F)cn3)nc2)CC1 [Compound 1]", "unit.symbol": "ng/mL", "Cmax": 2420}
